// reported pIC50 per item
test system: 422866-222-R5-J1-PDC spheroids with HUVEC/MSC, viability; assay: Anticancer human tumor 422866-222-R5-J1-PDC patient-derived pancreatic adenocarcinoma cell line growth inhibition [GQUAD]; settings: curve of first compound; second compound 3.16 µM;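 further: spheroids exposed to compounds for seven days before reading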
pIC50: −log10 of the molar value.
readout kind: pIC50

* CC(C)n1c(=O)n(C)c2cnc3cc(F)c(-c4ccc(OCCCN5CCCCC5)nc4)cc3c21 + Cc1cnc(CNC(=O)c2c(=O)c3ccc(N4CCCN(C)CC4)nc3n3c2sc2ccccc23)cn1 | < 5.00
* CC(C)(O)C1CCC(Nc2ccc3ncc(-c4cccc(C(F)(F)F)c4)n3n2)CC1 (stereo unspecified) + Cc1cnc(CNC(=O)c2c(=O)c3ccc(N4CCCN(C)CC4)nc3n3c2sc2ccccc23)cn1 | < 5.00
* Cc1cccc(N(C)C(=O)C2C(O)CCN2c2nc(C)cc(C(F)(F)F)c2C#N)c1 (stereo unspecified) + CN(C)c1ccc(Nc2c3ccc(NC(=O)CCN4CCCC4)cc3nc3cc(NC(=O)CCN4CCCC4)ccc23)cc1 | < 5.00
* CC1COCCN1c1cc(C2(O)CC3CCC(C2)O3)c2cnn(-c3ccn[nH]3)c2n1 (stereo unspecified) + Cc1cnc(CNC(=O)c2c(=O)c3ccc(N4CCCN(C)CC4)nc3n3c2sc2ccccc23)cn1 | 7.50
* O=c1[nH]cc(F)c(=O)[nH]1 + Cc1cnc(CNC(=O)c2c(=O)c3ccc(N4CCCN(C)CC4)nc3n3c2sc2ccccc23)cn1 | < 5.00
* Cc1cccc(N(C)C(=O)C2C(O)CCN2c2nc(C)cc(C(F)(F)F)c2C#N)c1 (stereo unspecified) + Cc1cnc(CNC(=O)c2c(=O)c3ccc(N4CCCN(C)CC4)nc3n3c2sc2ccccc23)cn1 | < 5.00
